organism: Rattus norvegicus; assay: Open TG-GATES - Regimen: Single; type: toxicity, organism-based, Sprague-Dawley; set-up: regimen Single, gender Male, age 6 weeks; conditions: in vivo, po, 0 mg/kg, 24 h, tissue Plasma, route gavage, dose level Control
readoutLabel: PL (mg/dL)
Dear colleague, please return just the value in mg/dL, with no unit written.

Query string: Using known records, supply PL for Nc1c2c(nc3ccccc13)CCCC2
Result string: 154.2

Query string: Using known records, supply PL for O=C(OC[C@H]1O[C@@H](OC(=O)c2cc(O)c(O)c(OC(=O)c3cc(O)c(O)c(O)c3)c2)[C@H](OC(=O)c2cc(O)c(O)c(OC(=O)c3cc(O)c(O)c(O)c3)c2)[C@@H](OC(=O)c2cc(O)c(O)c(OC(=O)c3cc(O)c(O)c(O)c3)c2)[C@@H]1OC(=O)c1cc(O)c(O)c(OC(=O)c2cc(O)c(O)c(O)c2)c1)c1cc(O)c(O)c(OC(=O)c2cc(O)c(O)c(O)c2)c1
Result string: 144.2

Query string: Using known records, supply PL for CC(C)NNC(=O)c1ccncc1
Result string: 152.8

Query string: Using known records, supply PL for Cc1nnc2n1-c1ccc(Cl)cc1C(c1ccccc1Cl)=NC2
Result string: 145.8

Query string: Using known records, supply PL for CN1C(=O)CCS(=O)(=O)C1c1ccc(Cl)cc1 (centres undefined)
Result string: 141.6

Query string: Using known records, supply PL for Brc1ccccc1
Result string: 136.8

Query string: Using known records, supply PL for CCOc1ccc(NC(C)=O)cc1
Result string: 161.8

Query string: Using known records, supply PL for NC1=NC(=O)C(c2ccccc2)O1 (centres undefined)
Result string: 144.6

Query string: Using known records, supply PL for COC(=O)C1=C(C)NC(C)=C(C(=O)OC)C1c1ccccc1[N+](=O)[O-]
Result string: 156.8

Query string: Using known records, supply PL for CS(=O)(=O)O.Cc1ccc(NC(=O)c2ccc(CN3CCN(C)CC3)cc2)cc1Nc1nccc(-c2cccnc2)n1 [IMATINIB MESYLATE]
Result string: 149

Query string: Using known records, supply PL for CNC(=C[N+](=O)[O-])NCCSCc1ccc(CN(C)C)o1
Result string: 148.8

Query string: Using known records, supply PL for CCCc1cc(=O)[nH]c(=S)[nH]1
Result string: 152.8

Query string: Using known records, supply PL for CN(C)CCC(c1ccc(Cl)cc1)c1ccccn1 (centres undefined)
Result string: 156.8

Query string: Using known records, supply PL for CN/C(=N/CCSCc1nc[nH]c1C)NC#N
Result string: 158.6
